Test system: oligodendrocytes cell line 158N
TEST_SUMMARY: Metabolic conversion in mouse oligodendrocytes cell culture (LC-MS)
Format: in vitro ADME
MEASUREMENT_CONDITIONS: data not shown

MOLECULE | conversion to 9CDHRA
CC1=C(/C=C/C(C)=C\C=C\C(C)=C\C=C\C=C(C)\C=C\C=C(C)\C=C\C2=C(C)CCCC2(C)C)C(C)(C)CCC1 [9CBC, 9-cis-β,β-Carotene] | not converted to 9CDHRA
CC1=C(/C=C/C(C)=C/C=C/C(C)=C/C=C/C=C(C)/C=C/C=C(C)/C=C/C2=C(C)CCCC2(C)C)C(C)(C)CCC1 [ATBC, all-trans-β,β-carotene, reference compound] | not converted to 9CDHRA
CC(=O)OCC[C@@H](C)/C=C/C=C(C)\C=C\C1=C(C)CCCC1(C)C (stereo in doubt) [9CDHROL-ES, (R)-9-cis-13,14-dihydroretinyl acetate] | excellent precursor
CC1=C(/C=C/C(C)=C\C=C\[C@H](C)C/C=C/C=C(C)/C=C/C=C(C)/C=C/C2=C(C)CCCC2(C)C)C(C)(C)CCC1 (stereo in doubt) [9CDHBC, (R)-9-cis-13,14-Dihydro-β,β-carotene] | not converted to 9CDHRA
CC1=C(/C=C/C(C)=C\C=C\C(C)CCO)C(C)(C)CCC1 (stereo not drawn) [9CDHROL, 9-cis-13,14-dihydroretinol] | excellent precursor
CC1=C(/C=C/C(C)=C/C=C/C(C)=C/CO)C(C)(C)CCC1 [ATROL, all-trans-retinol, reference compound] | not converted to 9CDHRA

---

Tested on: oligodendrocytes cell line 158N
TEST_SUMMARY: Metabolic conversion in mouse oligodendrocytes cell culture (LC-MS)
Assay type: in vitro ADME
MEASUREMENT_CONDITIONS: 10^−5M for 18 h

MOLECULE | 9CDHRA levels in cells after treatment
CC1=C(/C=C/C(C)=C\C=C\C(C)CCO)C(C)(C)CCC1 (stereo not drawn) [9CDHROL, 9-cis-13,14-dihydroretinol] | strong increase
CCOC(=O)C[C@@H](C)/C=C/C=C(C)\C=C\C1=C(C)CCCC1(C)C [9CDHRA-ES, Ethyl (9Z,13R)-13,14-Dihydroretinoate] | very strong increase
CC(C=CC1=C(C)CCCC1(C)C)=CC=CC(C)CC(=O)O (stereo not drawn) [9CDHRA, 9-cis-13,14-dihydroretinoic acid] | very strong increase
CC(=O)OCC[C@@H](C)/C=C/C=C(C)\C=C\C1=C(C)CCCC1(C)C (stereo in doubt) [9CDHROL-ES, (R)-9-cis-13,14-dihydroretinyl acetate] | strong increase

---

Test system: human oligodendrocytes cell cultures
TEST_SUMMARY: Metabolic conversion in human oligodendrocytes cell culture (HPLC-MS)
Format: in vitro ADME
MEASUREMENT_CONDITIONS: 10^−6M, n=3
RESULT_TYPE: 9CDHRA levels in cells after treatment (metabolism / accumulation)

COMPOUND | READING
CC(C=CC1=C(C)CCCC1(C)C)=CC=CC(C)CC(=O)O (stereo not drawn) [9CDHRA, 9-cis-13,14-dihydroretinoic acid] | strong accumulation
CC1=C(/C=C/C(C)=C\C=C\[C@H](C)C/C=C/C=C(C)/C=C/C=C(C)/C=C/C2=C(C)CCCC2(C)C)C(C)(C)CCC1 (stereo in doubt) [9CDHBC, (R)-9-cis-13,14-Dihydro-β,β-carotene] | not converted to 9CDHRA
CC1=C(/C=C/C(C)=C/C=C/C(C)=C/C=C/C=C(C)/C=C/C=C(C)/C=C/C2=C(C)CCCC2(C)C)C(C)(C)CCC1 [ATBC, all-trans-β,β-carotene, reference compound] | not converted to 9CDHRA
CC1=C(/C=C/C(C)=C\C=C\C(C)=C\C=C\C=C(C)\C=C\C=C(C)\C=C\C2=C(C)CCCC2(C)C)C(C)(C)CCC1 [9CBC, 9-cis-β,β-Carotene] | not converted to 9CDHRA
CCOC(=O)C[C@@H](C)/C=C/C=C(C)\C=C\C1=C(C)CCCC1(C)C [9CDHRA-ES, Ethyl (9Z,13R)-13,14-Dihydroretinoate] | strong accumulation
CC1=C(/C=C/C(C)=C/C=C/C(C)=C/CO)C(C)(C)CCC1 [ATROL, all-trans-retinol, reference compound] | not converted to 9CDHRA
